// data source = patent US11629135B2

Assay: Intravenous and oral pharmacokinetics in mice
Format: in vivo, Balb/c mice
Settings: male, mouse, plasma; Balb C mice, oral dose of 10 mg/Kg
READOUT_KIND: AUC(0-inf) (ng·h/mL)
Field format: number, assumed ng·h/mL, no unit text.

Give its AUC(0-inf) value. Item: COc1nc(OCc2cccc(-c3ccccc3)c2C)nc(OC)c1CN1CCCC[C@H]1C(=O)O
21100

###

Biological target: PD-1/PD-L1 interaction (Homo sapiens)
Construct: Tag1 or Tag2 (undisclosed kit tag)
Test: PD-1/PD-L1 Homogenous Time-Resolved Fluorescence (HTRF) binding assay
Settings: Biochemical PD1/PD-L1 inhibition
READOUT_KIND: IC50

Examples with their reported IC50 follow.
>>> df
                            compound_string  readout_kind         result
0  Cc1c(COc2ncc(CN3CCCC[C@H]3C(=O)O)c(OCc3ccc(F)c(C#N)c3)n2)cccc1-c1ccccc1          IC50       > 0.5 µM
1  CCOc1nc(OCc2cccc(-c3ccccc3)c2C)ncc1CNC1(C(=O)O)CC1          IC50  0.1 to 0.5 µM

Recorded IC50 for COc1nc(OCc2cccc(-c3ccc(F)cc3)c2C)ncc1CNCCNC(C)=O with PD-1/PD-L1 interaction (Homo sapiens), please?
> 0.5 µM

###

Target: PD-1/PD-L1 interaction (Homo sapiens)
Construct: Tag1 or Tag2 (undisclosed kit tag)
Experiment: PD-1/PD-L1 Homogenous Time-Resolved Fluorescence (HTRF) binding assay
Settings: Biochemical PD1/PD-L1 inhibition
READOUT_KIND: IC50

                                   compound                        measured_target  readout_kind    result
0  COc1nc(OCc2cccc(-c3ccccc3)c2C)nc(OC)c1CN1CCCC2C[C@]21C(=O)O (single isomer, unassigned)  PD-1/PD-L1 interaction (Homo sapiens)          IC50  < 100 nM

Give its IC50 value. Item: COc1nc(OCc2cccc(-c3cccc(OCCCN4CCC(F)(F)C4)c3C)c2C)ncc1CN1CCCC[C@H]1C(=O)O
100 to 500 nM

Give its IC50 value. Item: CC(=O)NCCNCc1cnc(OCc2cccc(-c3ccccc3)c2C)nc1OCc1ccccc1
> 500 nM

Give its IC50 value. Item: COC(=O)C1COCCN1Cc1c(OC)nc(OCc2cccc(-c3ccccc3)c2C)nc1OC (stereo not shown)
> 500 nM

Give its IC50 value. Item: CCOc1nc(OCc2cccc(-c3ccccc3)c2C)ncc1CN1C[C@H](O)CC1C(=O)O (stereo in doubt)
100 to 500 nM

Give its IC50 value. Item: Cc1c(COc2ncc(CN3CCCC[C@H]3C(=O)O)c(OCc3cncc(C#N)c3)n2)cccc1-c1ccccc1
> 500 nM

Give its IC50 value. Item: COc1nc(OCc2cccc(-c3cccc(F)c3)c2C)ncc1CN1CCCC[C@H]1C(=O)O
100 to 500 nM

###

Biological target: PD-1/PD-L1 interaction (Homo sapiens, UniProt Q9NZQ7)
Construct: Tag1 or Tag2 (undisclosed kit tag)
Sequence (Q9NZQ7 19-238 limits assumed): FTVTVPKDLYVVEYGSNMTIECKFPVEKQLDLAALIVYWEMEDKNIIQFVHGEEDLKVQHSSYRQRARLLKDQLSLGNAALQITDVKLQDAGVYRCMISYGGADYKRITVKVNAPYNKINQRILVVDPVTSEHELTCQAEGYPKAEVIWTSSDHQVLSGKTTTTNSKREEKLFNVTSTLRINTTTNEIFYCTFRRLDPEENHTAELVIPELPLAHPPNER
Assay: PD-1/PD-L1 Homogenous Time-Resolved Fluorescence (HTRF) binding assay
Conditions: Biochemical PD1/PD-L1 inhibition
READOUT_KIND: IC50

>>> df
                                   molecule  readout_kind         result
0  COc1nc(OCc2cccc(-c3cccc(F)c3)c2C)ncc1CNCCNC(C)=O          IC50  100 to 500 nM
1  COc1nc(OCc2cccc(-c3ccccc3)c2C)ncc1CN1CCC[C@@H]2C[C@@]21C(=O)O (racemic)          IC50       > 500 nM
2  Cc1c(COc2ncc(CN3C[C@H](O)C[C@H]3C(=O)O)c(OCc3ccc(F)c(C#N)c3)n2)cccc1-c1ccccc1          IC50  100 to 500 nM
3  COc1nc(OCc2cccc(-c3ccc4c(c3)OCCO4)c2C)nc(OC)c1CNCCNC(C)=O          IC50       < 100 nM
4  COc1nc(OCc2cccc(-c3ccccc3)c2C)nc(OC)c1CN1CCOCC1CC(=O)O (stereo not shown)          IC50  100 to 500 nM

Give its IC50 value. Item: COc1nc(OCc2cccc(-c3ccccc3)c2C)nc(OC)c1CN1CCC[C@H]1C(=O)O
100 to 500 nM

Give its IC50 value. Item: CC(=O)NCCNCc1cnc(OCc2cccc(-c3ccccc3)c2C)nc1OCc1ccc(F)c(C#N)c1
> 500 nM
